Entries and their measured LD50 follow.
assay: Toxicity on the mice; conditions: mouse, in vivo, IP route

Solved entries:
Cc1nnc2n1-c1sc3c(c1C(c1ccccc1Cl)=NC2)CCN(C(=O)Nc1ccc(C(C)(C)C)cc1)C3 : 400 to 1000 mg/kg
Cc1nnc2n1-c1sc3c(c1C(c1ccccc1Cl)=NC2)CCN(C(=O)Nc1ccc(Oc2ccccc2)cc1)C3 : 400 to 1000 mg/kg
Cc1nnc2n1-c1sc3c(c1C(c1ccccc1Cl)=NC2)CCN(C(=S)NS(=O)(=O)c1ccc[nH]1)C3 : 400 to 1000 mg/kg

For the next question, use this molecule.
### Prompt Supply LD50 value. Item: `Cc1nnc2n1-c1sc3c(c1C(c1ccccc1Cl)=NC2)CCN(C(=O)Nc1cccc(Cl)c1Cl)C3`
### Response 400 to 1000 mg/kg

Source: patent US5492906A
